- run_description: in vivo
- applied_conditions: mouse, ip, 31.2 mg/kg
quantity_name: mortality at 336 h (%)

- CCCCCCCC[N+](C)(C)CCOC(=O)C(C)c1ccc(CC(C)C)cc1 (stereo not drawn) [AF 150]: 100
- CCCCCCCCCC[N+](C)(C)CCOC(=O)Cc1c(C)n(C(=O)c2ccc(Cl)cc2)c2ccc(OC)cc12 [RE 8]: 100
- CCCCCCCCCCCC[N+](C)(C)CCOC(=O)Cc1c(C)n(C(=O)c2ccc(Cl)cc2)c2ccc(OC)cc12 [RE 9]: 0

###

- Test system: Pseudomonas aeruginosa
- Format: cell-based
- applied_conditions: ATCC14502; Pseudomonas aeruginosa ATCC 14502
quantity_name: MIC (µg/mL)

* CCCCCCCC[N+](C)(C)CCOC(=O)C(C)c1ccc(CC(C)C)cc1 (stereo not shown) | 10
* CCCCCCCCCC[N+](C)(C)CCOC(=O)Cc1c(C)n(C(=O)c2ccc(Cl)cc2)c2ccc(OC)cc12 | 80
* N=C(NCCCCCCNC(=N)NC(=N)Nc1ccc(Cl)cc1)NC(=N)Nc1ccc(Cl)cc1 [Chlorexidine, Chlorexidine gluconate, reference compound] | 80
* CCCCCCCCCCCC[N+](C)(C)CCOC(=O)Cc1c(C)n(C(=O)c2ccc(Cl)cc2)c2ccc(OC)cc12 | 80

Data origin: patent EP0237495A2
